Target: HLA-DRB1*04:01 MHCII molecule (human)
Assay: competition ELISA; 25 nM huCLIP-bio
Settings: modification not given
MEASURE NAME: pIC50
Please report pIC50 as the negative decimal logarithm of the molar concentration, giving only the number.

Suppose we examine the binder PVSQMRMATPLLMRP [mCLIP] ; what pIC50 value has been reported?
7.51
